Taken from patent US6169091A.

test system: HB4a erbB-2 cells; assay: cell proliferation assay, HB4a cells transformed by over-expression of c-erbB-2; assay type: cell-based; settings: Homo sapiens, 96 h, low serum, 4 days at 37° C., methylene blue, 0.5% DMSO
pIC50: −log10 of the molar value. Counter-ions that a name gives are not always drawn.
Recorded pIC50 by entry
Experimental Endpoint: pIC50

>>> result_value("Cc1csc2ncnc(Nc3ccc(Oc4ccccc4)cc3)c12 [Example 37, hydrochloride]")
4.77
>>> result_value("Cc1csc2ncnc(Nc3ccc(OCc4ccccc4F)c(Cl)c3)c12 [Example 35, hydrochloride]")
5.10
>>> result_value("Clc1cc2c(Nc3ccc(OCc4ccccc4)cc3)ncnc2cn1 [Example 1, hydrochloride]")
5.57
>>> result_value("CN1CCN(c2cc3c(Nc4ccc(OCc5ccccc5)cc4)ncnc3cn2)CC1")
6.23

---

tested on: HB4a erbB-2 cells; test: cell proliferation assay, HB4a cells transformed by over-expression of c-erbB-2; type: cell-based; conditions: Homo sapiens, 96 h, low serum, 4 days at 37° C., methylene blue, 0.5% DMSO
Counter-ions that a name gives are not always drawn.
Experimental Endpoint: IC50 (µM)

>>> result_value("FC(F)(Oc1ccc(Nc2ncnc3ccsc23)cc1)c1ccccc1 [Example 30, hydrochloride]")
6
>>> result_value("c1ccc(Cc2ccc(Nc3ncnc4ccsc34)cc2)cc1 [Example 28, hydrochloride]")
3
>>> result_value("O=S(=O)(c1ccccc1)c1ccc(Nc2ncnc3cnc(Cl)cc23)cc1 [Example 14]")
15
>>> result_value("c1ccc(COc2ccc(Nc3ncnc4ccsc34)cc2)cc1 [Example 23, hydrochloride]")
2

---

target: c-erbB-2 (Homo sapiens); construct: recombinant construct of the intracellular domain of c-erbB-2 that is constitutively active; test: c-erbB-2 substrate phosphorylation assay (33P-labelled γ-phosphate from ATP onto PolyGluAlaTyr); conditions: 1 hour, room temperature, 100 μM ATP, 10 mM MnCl2, pH 7.4, 2% DMSO; recombinant intracellular domain of c-erbB-2
Sequence (P04626 676-1255 limits assumed): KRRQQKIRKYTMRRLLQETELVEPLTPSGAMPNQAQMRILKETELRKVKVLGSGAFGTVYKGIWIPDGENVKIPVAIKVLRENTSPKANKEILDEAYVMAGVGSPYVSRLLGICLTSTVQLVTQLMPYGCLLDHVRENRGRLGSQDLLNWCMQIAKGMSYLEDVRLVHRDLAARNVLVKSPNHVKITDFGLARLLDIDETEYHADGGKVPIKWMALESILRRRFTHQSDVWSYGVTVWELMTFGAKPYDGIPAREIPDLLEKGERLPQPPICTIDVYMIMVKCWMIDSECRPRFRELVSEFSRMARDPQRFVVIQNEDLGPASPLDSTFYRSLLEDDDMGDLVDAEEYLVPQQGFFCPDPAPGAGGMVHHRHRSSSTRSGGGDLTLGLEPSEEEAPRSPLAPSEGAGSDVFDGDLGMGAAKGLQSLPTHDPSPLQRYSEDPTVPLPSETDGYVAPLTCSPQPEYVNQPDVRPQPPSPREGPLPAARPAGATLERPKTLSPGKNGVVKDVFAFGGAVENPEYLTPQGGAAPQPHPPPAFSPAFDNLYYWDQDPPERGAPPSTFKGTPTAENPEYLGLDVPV
Where a name gives a salt, the structure may show the parent alone.
Experimental Endpoint: IC50 (nM)

>>> result_value("O=S1(=O)CCN(c2cc3c(Nc4ccc(OCc5ccccc5)cc4)ncnc3cn2)CC1")
920
>>> result_value("CN(C)c1cc2c(Nc3ccc(OCc4ccccc4)cc3)ncnc2cn1")
1.3
>>> result_value("Clc1cc2c(Nc3ccc(OCc4ccccc4)cc3)ncnc2cn1 [Example 1, hydrochloride]")
58
>>> result_value("Cc1csc2ncnc(Nc3ccc(OCC4CCCCC4)cc3)c12 [Example 36, hydrochloride]")
500

---

test system: HB4a erbB-2 cells; assay: cell proliferation assay, HB4a cells transformed by over-expression of c-erbB-2; type: cell-based; details: Homo sapiens, 96 h, low serum, 4 days at 37° C., methylene blue, 0.5% DMSO
Where a name gives a salt, the structure may show the parent alone.
Experimental Endpoint: IC50

>>> result_value("CN(CCO)c1cc2c(Nc3ccc(S(=O)(=O)c4ccccc4)cc3)ncnc2cn1")
"150 nM"
>>> result_value("CN(C)c1cc2c(Nc3ccc(Oc4ccccc4)cc3)ncnc2cn1")
"1600 nM"
>>> result_value("Cn1cncc1-c1cc2c(Nc3ccc(OCc4ccccc4)cc3)ncnc2cn1")
"690 nM"
>>> result_value("Fc1ccccc1COc1ccc(Nc2ncnc3ccsc23)cc1Cl [Example 25, hydrochloride]")
"500 nM"
>>> result_value("c1ccc(Oc2ccc(Nc3ncnc4scc(-c5cccs5)c34)cc2)cc1 [Example 38, hydrochloride]")
"20000 nM"
